- Tested on: HCV 1b_Huh-Luc/Neo-ET cell line persistently expressing a bicistronic genotype 1b replicon in Huh 7 cells
- assay method text: HCV replicon assay (luciferase readout)
- Type: cell-based
- experimental parameters: Hepatitis C virus, Huh-7, 72 h, read-out: Inhibition of HCV genotype 1b
pEC50: −log10 of the molar value.
readout label: pEC50

I have this molecule here, "COC(=O)N[C@H](C(=O)N1CCC[C@H]1c1ncc(-c2ccc(C#Cc3ccc(-c4cnc([C@@H]5CCCN5C(=O)[C@H](NC(=O)N5CCC(O)CC5)c5ccccc5)[nH]4)cc3)cc2)[nH]1)C(C)C" , and I need its recorded pEC50.
8.00 to 9.00

Now give it for "COC(=O)N[C@H](C(=O)N[C@@H](C)c1ncc(-c2ccc(C#Cc3ccc(-c4cnc([C@@H]5CCCN5C(=O)[C@@H](C(C)C)N(C)C)[nH]4)cc3)cc2)[nH]1)C(C)C" too.
8.00 to 9.00

====

- Tested on: HCV 1b_Huh-Luc/Neo-ET cell line persistently expressing a bicistronic genotype 1b replicon in Huh 7 cells
- assay method text: HCV replicon assay (luciferase readout)
- Assay type: cell-based
- experimental parameters: Hepatitis C virus, Huh-7, 72 h, read-out: Inhibition of HCV genotype 1b
pEC50: −log10 of the molar value.
Measured pEC50, listed per entry.

Reference set (2 entries):
cpd_smiles=C[C@H](NC(=O)[C@@H]1CCCN1C(=O)[C@H](NC(=O)OC(C)(C)C)c1ccccc1)c1ccc(C#Cc2ccc(-c3cnc([C@@H]4CCCN4C(=O)[C@H](NC(=O)OC(C)(C)C)c4ccccc4)[nH]3)cc2)cc1 readout_label=pEC50 reported_value="8.00 to 9.00"
cpd_smiles=COC(=O)N[C@@H](C(=O)N1CCC[C@H]1c1ncc(-c2ccc(C#Cc3ccc(-c4cnc([C@@H]5CCCN5C(=O)[C@H](NC(=O)N5CCCC5)c5ccccc5)[nH]4)cc3)cc2)[nH]1)c1ccccc1 readout_label=pEC50 reported_value="> 9.00"

Entry under review: "COC(=O)N[C@H](C(=O)N1CCC[C@H]1c1ncc(-c2ccc(C#Cc3ccc(-c4cnc([C@@H]5CCCN5C(=O)[C@H](NC(=O)N(CCO)CCO)c5ccccc5)[nH]4)cc3)cc2)[nH]1)C(C)C" . Reported pEC50?
> 9.00

====

- Test system: HCV 1b_Huh-Luc/Neo-ET cell line persistently expressing a bicistronic genotype 1b replicon in Huh 7 cells
- assay method text: HCV replicon assay (luciferase readout)
- Format: cell-based
- experimental parameters: Hepatitis C virus, Huh-7, 72 h, read-out: Inhibition of HCV genotype 1b
pEC50: −log10 of the molar value.
readout label: pEC50

molecule="COC(=O)N[C@@H](C(=O)N1CCC[C@H]1c1ncc(-c2ccc(C#Cc3ccc(-c4cnc([C@@H]5CCCN5C(=O)[C@H](NC(=O)C5(O)CC5)c5ccccc5)[nH]4)cc3)cc2)[nH]1)c1ccccc1 [Compound 277]" reported_value="> 9.00"

Now consider the entry below.
Look at this molecule and give its reported pEC50. COC(=O)N[C@@H](C(=O)N1CCC[C@H]1c1ncc(-c2ccc(C#Cc3ccc(-c4cnc([C@@H]5CCCN5C(=O)[C@H](NC(=O)[C@@H]5CCCN5)c5ccccc5)[nH]4)cc3)cc2)[nH]1)c1ccccc1 [Compound 206]
> 9.00

====

- Test system: HCV 1b_Huh-Luc/Neo-ET cell line persistently expressing a bicistronic genotype 1b replicon in Huh 7 cells
- assay method text: HCV replicon assay (luciferase readout)
- Type: cell-based
- experimental parameters: Hepatitis C virus, Huh-7, 72 h, read-out: Inhibition of HCV genotype 1b
readout label: EC50

Completed entries (count: 3):
cpd_smiles=COC(=O)N[C@H](C(=O)N1CCC[C@H]1c1ncc(-c2ccc(C#Cc3ccc(-c4cnc([C@@H]5CCCN5C(=O)[C@H](C(C)C)N(C)C)[nH]4)cc3)cc2)[nH]1)C(C)C readout_label=EC50 reported_value="1 to 9.9 nM"
cpd_smiles=COC(=O)N[C@@H](C(=O)N1CCC[C@H]1c1ncc(-c2ccc(C#Cc3ccc(-c4cnc([C@@H]5CCCN5C(=O)[C@H](NC(=O)OC)C(C)C)[nH]4)cc3)cc2)[nH]1)C(C)C readout_label=EC50 reported_value="> 1000 nM"
cpd_smiles=COC(=O)N[C@@H](C(=O)N1CCC[C@H]1c1ncc(-c2ccc(C#Cc3ccc(-c4cnc([C@@H]5CCCN5C(=O)[C@H](NC(=O)[C@@H]5CCCN5C)c5ccccc5)[nH]4)cc3)cc2)[nH]1)c1ccccc1 readout_label=EC50 reported_value="< 1 nM"

What EC50 value was documented for this compound, "CS(=O)(=O)N[C@@H](C(=O)N1CCC[C@H]1c1ncc(-c2ccc(C#Cc3ccc(-c4cnc([C@@H]5CCCN5C(=O)[C@@H](c5ccccc5)N5CCCC5)[nH]4)cc3)cc2)[nH]1)c1ccccc1" ?
< 1 nM

Also need "O=C(N[C@@H](C(=O)N1CCC[C@H]1c1ncc(-c2ccc(C#Cc3ccc(-c4cnc([C@@H]5CCCN5C(=O)[C@@H](c5ccccc5)N5CCCCC5)[nH]4)cc3)cc2)[nH]1)c1ccccc1)C1CC1" , thanks.
< 1 nM
